Source of measurements: patent US20250282866A1

target.or.test.system: T1, human TREM2 (human, UniProt Q9NZC2 19-174, limits assumed)
T1 construct: also called triggering receptor expressed on myeloid cells 2
T1 sequence: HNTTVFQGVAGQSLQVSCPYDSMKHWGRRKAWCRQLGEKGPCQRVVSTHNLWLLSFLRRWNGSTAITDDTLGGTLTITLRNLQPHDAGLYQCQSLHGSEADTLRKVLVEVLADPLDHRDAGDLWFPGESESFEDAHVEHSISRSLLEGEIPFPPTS
run.description: 2nd screen 2 nM
test.readout: Binding Signal (fold over 6E7 Parental antibody) (fold)
# unit: fold | format: bare number

INSERT INTO measurements (binder, reported_measurement) VALUES
  ('V26 (antibody, V domains shown) VH: EVQLVQSGAEVKKPGESLKISCKGSGYSFTSYWIGWVRQMPGKGLEWMGTIYPGDSDTRYSPSFQGQVTISADKSISTAYLQWSSLKASDTAMYFCARQRTMYYDSSDYFDAWGQGTLVTVSS VL: DIQMTQSPSSVSASVGDRVTITCRASQGISSWLAWYQQKPGKAPKLLIYAASSLQRGVPSRFSGSGSGTDFTLTISSLQPEDFATYFCQQADSYPRTFGQGTKLEIK', 2.83),
  ('V37 (antibody, V domains shown) VH: EVQLVQSGAEVKKPGESLKISCKGSGYSHTSYWIAWVRQMPGKGLEWMGIIYPGDSDTRYSPSFAGQVTISADKSISTAYLQWSSLKASDTAMYFCARSRTFYYDSSDYFDYWGQGTLVTVSS VL: DIQMTQSPSSVSASVGDRVTITCRASQGISSWLAWYQQKPGKAPKLLIYAASSLQWGVPSRFSGSGSGTDFTLTISSLQPEDFATYFCQQADSYPRTFGQGTKLEIK', 3.69);

Let us examine a further case.
Data request, read-out Binding Signal (fold over 6E7 Parental antibody), for V52 (antibody, V domains shown) VH: EVQLVQSGAEVKKPGESLKISCKGSGYSFESYWIAWVRQMPGKGLEWMGIIYPGDSDTRYSPSFQGQVTISADKSISTAYLQWSSLKASDTAMYFCARGRTFYYDSSDYFDYWGQGTLVTVSS VL: DIQMTQSPSSVSASVGDRVTITCRASQGISSWLAWYQQKPGKAPKLLIYAASSLQRGVPSRFSGSGSGTDFTLTISSLQPEDFATYFCQQADRFPRTFGQGTKLEIK
1.78
